Test system: TK-10 renal
Experiment: NCI-60 one-dose screen, 48 h (100 = growth as untreated, 0 = no growth, -100 = all killed)
Conditions: 10 µM unless noted
Description: Growth inhibition of the TK-10 human tumor cell line is measured as a screen for anti-cancer activity. Cells are grown in 96 well plates and exposed to the test compound for 48 hours. Compounds are tested at a single concentration, which is 10^-5 M for most compounds. The reported endpoint is percent growth (GI% or GIPRCNT), where numbers from 0 - 100% represent growth inhibition, and numbers from -100% - 0 represent cell death. For example, a value of 40 represents 60% growth inhibition. […]
About 83,000 compounds went through this panel and 20% of them were active in at least one assay; those are over-represented in the sample as a whole.
readout_label: growth (%)
Numbers only, in %.

* Cc1ccc(C2=N[C@H]3CCC[C@@H]3N(c3ccccc3)C(C(Cl)Cl)=N2)cc1 | 100
* O=C1NN(c2ccccc2)C(c2ccc3c(c2)OCO3)N2CCC[C@@H]12 (stereo partly drawn) | 92.2

# batch: return growth for each of the 5 compounds below
1. O=C(Nc1nc2ccc(C(F)(F)F)cc2s1)c1cc(Cl)ccc1O
2. Nc1ccc2c(c1)C(=O)C(=O)c1c-2nc2ccccn12
3. C/C(=C\c1cnc(C)s1)[C@@H]1C[C@@H]2O[C@@H]2CCC[C@H](C)[C@H](O)[C@@H](C)C(=O)C(C)(C)[C@@H](O)CC(=O)O1
4. Nc1cccc(C(=O)Nc2ccc3c(O)c(N=Nc4ccc(N=Nc5ccc(S(=O)(=O)O)cc5)cc4)c(S(=O)(=O)O)cc3c2)c1
5. COc1ccc2nc(-c3ccc(OC)c(OC)c3)cc(-c3nnc(SCC(=O)Nc4ccc(C(C)=O)cc4)o3)c2c1

output:
4.94
115
44.8
101
109

# map each compound to its growth
1. CC[C@H](Nc1ncnc2nc[nH]c12)c1nc2cccc(CC(=O)c3ccc(C(=O)NO)cc3)c2c(=O)n1-c1ccccc1
2. CCn1cc(C(=O)O)c(=O)c2cc(F)c(N3CCN(CC(=O)Nc4ccc(/C(C)=N/OC)cc4)CC3)cc21
3. COc1ccc(Cc2nc(C#N)c(N3CCN(c4ccc(F)cc4)CC3)o2)cc1
4. COCCc1n(Cc2ccc3ccccc3c2)c2ccccc2[n+]1Cc1ccc2ccccc2c1

output:
1: 88.1; 2: 101; 3: 75.1; 4: -80.9

Provide each entry's growth from the list below.
1. COC(=O)/C=C1\SC(=Nc2cccc(OC)c2)N(CCc2c[nH]c3ccccc23)C1=O
2. COc1ccc2[nH]c(-c3ccccc3)c(C=C(C#N)C#N)c2c1
3. COC(=O)CCc1n(Cc2ccc3ccccc3c2)c2ccccc2[n+]1Cc1ccc2ccccc2c1
4. O=C(NC[C@H](O)CN1CCc2ccccc2C1)c1cc(NC2COC2)ncn1

output:
1: 89.3; 2: 41.5; 3: -5.81; 4: 96.4

# batch: return growth for each of the 3 compounds below
1. Cc1cc(C)cc(Nc2nccc(-c3c(-c4ccc(F)cc4)ncn3C3CCNCC3)n2)c1
2. O=C(C[n+]1cccc2cc(Cl)ccc21)c1ccc2c(c1)CCCC2
3. OCCNc1nc(NCCO)nc(Nc2ccc(C3=NN(c4cc(Cl)cc(Cl)c4)C(c4ccc(Cl)cc4)C3)cc2)n1 (stereo not drawn)

output:
1: 17.8; 2: 62; 3: -2.42

---

System: COLO 205 colon
Assay: NCI-60 one-dose screen, 48 h
Details: 10 µM unless noted
The panel holds about 83,000 compounds, 20% with a hit somewhere; the sample as a whole holds those more often. The source made the active and inactive calls. How the source made its calls: active means growth percent below 10; inactive means the rest.
Your reply should match one of these outcome classes. YES for active, NO for inactive

* COc1cc2c(Nc3ccc(NC(=O)Nc4ccc(Cl)c(C(F)(F)F)c4)c(Cl)c3)ncnc2cc1OCCCN1CCN(C)CC1 | YES
* C=C(C)[C@@H]1CC[C@]2(C(=O)n3ccnc3)CC[C@]3(C)[C@H](CC[C@@H]4[C@@]5(C)CCCNC(C)(C)[C@@H]5CC[C@]43C)[C@@H]12 | YES
* CC(=O)Nc1c(C(=O)Nc2ccccc2)sc2nc3c(cc12)C(OC(C)=O)CCC3 (stereo not drawn) | NO

input: Check the results log: what was the call for CCOCCc1c(O)nc(SC)[nH]c1=O ?
output: NO

input: Could you check what this test reported for C=C1C(=O)O[C@H]2[C@H]1CC/C(COC(=O)CCC(=O)OC/C1=C/CC[C@@]3(C)O[C@H]3[C@H]3OC(=O)C(=C)[C@@H]3CC1)=C\CC[C@@]1(C)O[C@@H]21 ?
output: YES

input: What is the recorded call for this compound in the test? NC(=O)c1ccc2nc3c(n2c1)C(=O)C(=O)c1ccccc1-3
output: YES

input: Could you check what this test reported for CNS(=O)(=O)c1cccc(-c2ccc3c4c(n(C)c(=O)c3c2)-c2ccccc2C4=O)c1 ?
output: NO

---

System: LOX IMVI melanoma
Test: NCI-60 one-dose screen, 48 h (100 = growth as untreated, 0 = no growth, -100 = all killed)
Conditions: 10 µM unless noted
Protocol: Growth inhibition of the LOX IMVI human tumor cell line is measured as a screen for anti-cancer activity. Cells are grown in 96 well plates and exposed to the test compound for 48 hours. Compounds are tested at a single concentration, which is 10^-5 M for most compounds. The reported endpoint is percent growth (GI% or GIPRCNT), where numbers from 0 - 100% represent growth inhibition, and numbers from -100% - 0 represent cell death. For example, a value of 40 represents 60% growth inhibition. […]
This is part of a sample that, as a whole, favours compounds with a hit. Of some 83,000 tested, about 20% had one in any assay.
Please assign Not satisfied whenever growth is at or above 30%, and Satisfied whenever it is below.

Solved entries (count: 5):
- C=C1C(=O)O[C@H]2[C@H]1CC/C(COC(=O)c1c[nH]c3ccccc13)=C\CC[C@@]1(C)O[C@@H]21: Satisfied
- O=C(Nc1nc2ccc(C(F)(F)F)cc2s1)c1cc(Cl)ccc1O: Satisfied
- N#Cc1ccc(N2Cc3cc(Cl)ccc3OC3=C2C(=O)N(Cc2ccccc2)C3=O)cc1: Satisfied
- Cc1cc(C)nc(NS(=O)(=O)c2ccc(Nc3ccc4c5c(n(CCCN(C)C)c(=O)c4c3)-c3ccccc3C5=O)cc2)n1: Not satisfied
- CCCCn1c(=O)c(/C=C/C(=O)/C=C/c2ccc(OC)cc2)cc2cc(Cl)ccc21: Satisfied

input: API: query returns whether the compound falls strictly under 30% in growth. Query: CC1CCN(CCCCCOc2ccc3oc4cc(Cl)ccc4c(=O)c3c2)CC1
output: Satisfied

input: Please state whether growth is below 30% for CCCCc1n(Cc2ccc3ccccc3n2)cc[n+]1Cc1ccc2ccccc2c1
output: Satisfied

input: Strictly below 30% in growth? O=C(O)c1cn(C2CC2)c2cc(N3CCN(Cc4nnc(Nc5ccccc5)o4)CC3)c(F)cc2c1=O
output: Not satisfied

input: For Cc1ccc2nc3nc4ccc[nH]c4cc3c2c1 , is the recorded growth below the cut-off of 30%?
output: Not satisfied

input: Field: below-cutoff. Rule: recorded growth strictly less than 30%. Subject: O=C1NN(c2ccccc2)C(c2ccc(Cl)cc2)N2CCC[C@H]12 (some centres undefined)
output: Not satisfied

input: Consider COc1ccc2c(c1)OC13Oc4cc(OC)ccc4C=C1CCCCC3=C2 . Does its growth lie strictly below 30%?
output: Not satisfied

input: growth strictly < 30% for this compound? O=c1nc(-c2ccccc2)c2cc(-c3ccc(N4CCCC4)nc3)ccc2[nH]1
output: Not satisfied

input: Would you kindly verify if growth of O=C1Nc2ccc(Br)cc2/C1=N\N=C/c1cn(Cc2ccccc2)c2ccccc12 is strictly less than 30%?
output: Not satisfied

input: Please state whether growth is below 30% for COC(=O)c1ccc(NC(=O)CSc2nc(-c3ccc(F)cc3)nc3ccccc23)cc1
output: Not satisfied

input: Given the entry CCOC(=O)NCCc1nc2c([nH]1)c(=O)n(C)c(=O)n2C , would its reported growth be below 30%?
output: Not satisfied

input: Is growth of Fc1ccc(N/N=C/c2ccc(-n3cccn3)cc2)cc1 strictly below 30%?
output: Not satisfied

input: Please check: growth for CN(C)c1ccc(-c2ccc3[nH]c(=O)nc(-c4ccc(F)cc4)c3c2)cn1 , strictly under 30% or not?
output: Not satisfied

input: Hello, is growth of the following compound strictly smaller than 30%? CCOC(=O)C1=C(C)n2nc(CC#N)c(C#N)c2NC1c1ccc(CC)cc1 (centres undefined)
output: Not satisfied

input: Identify whether the compound COc1ccc2nc(-c3ccc(Cl)cc3)cc(-c3nnc(SCC(=O)Nc4ccc(/C(C)=N\O)cc4)o3)c2c1 records growth below 30%.
output: Satisfied

input: Hello, I'm reviewing records and need to know if growth of COCCOC(=O)COc1ccc(OC)cc1 is below 30%. Could you check?
output: Not satisfied

input: Does this compound meet the criterion growth < 30%? COc1ccc(N(C)c2nc(Cl)nc3ccn(C)c23)cc1
output: Satisfied

input: In the record for Cn1c2c(c3ccc(-c4ccn[nH]4)cc3c1=O)C(=O)c1ccccc1-2 , is growth less than 30%?
output: Satisfied

input: Below 30% on growth? Entry O=C(O)C(C(=O)O)c1cccc2ccccc12
output: Not satisfied

input: Report whether reported growth is lower than 30% (strictly) for COc1ccc(C(=O)c2cc(F)c(F)c(OC)c2F)cc1OC(=O)CCl
output: Not satisfied

input: Does the reported growth of the following compound sit strictly below 30%? COc1cc(/C=N/Nc2nc(-c3ccc(F)cc3)c(C#N)c(N3CCOCC3)n2)ccc1O
output: Not satisfied

input: Strictly below 30%: is that where growth of COC(=O)c1ccc2c(c1)NC(=O)[C@@H]1CCCN21 sits?
output: Not satisfied

input: Report whether reported growth is lower than 30% (strictly) for Nc1c(C(=O)Nc2cccc3ccccc23)sc2nc3c(cc12)CCCCCC3
output: Not satisfied

input: Does the reported growth of C#CCN(CCCOc1ccc(Cl)cc1Cl)CCCSC(=O)CCCCCN1/C(=C\C=C2/CCCC(/C=C/C3=[N+](CCCCCC(=O)[O-])c4ccccc4C3(C)C)=C2Cl)C(C)(C)c2ccccc21 stay below 30%?
output: Satisfied
